# maps each entry to its EC50
# Experimental target: Trace amine-associated receptor 1 (Homo sapiens, UniProt Q96RJ0)
# Sequence (Q96RJ0 whole entry): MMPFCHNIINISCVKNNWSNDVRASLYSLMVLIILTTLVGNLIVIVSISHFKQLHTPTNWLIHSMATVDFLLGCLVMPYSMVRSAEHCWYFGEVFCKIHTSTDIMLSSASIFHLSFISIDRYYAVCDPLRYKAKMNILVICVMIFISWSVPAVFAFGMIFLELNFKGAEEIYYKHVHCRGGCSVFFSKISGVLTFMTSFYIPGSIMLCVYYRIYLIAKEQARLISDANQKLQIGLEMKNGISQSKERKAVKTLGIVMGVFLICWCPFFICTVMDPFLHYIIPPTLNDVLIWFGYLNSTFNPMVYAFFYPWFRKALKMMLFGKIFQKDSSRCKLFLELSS
# Assay name: Fluorescence-based cell-based high throughput dose response assay to identify agonists of the human trace amine associated receptor 1 (TAAR1).
# Assay type: functional
Active and inactive are the calls of the source.

// known answers, use as guide
Molecule	EC50
Clc1cccc2c3c([nH]c12)CCNC3	1360 nM (active)
CN(CCc1ccccc1)C(C(=O)c1ccc2c(c1)OCO2)c1nnnn1-c1ccccc1NC(=O)OC(C)(C)C (centres undefined)	881 nM (active)
Nc1sc2c(c1C(=O)NCCc1ccccc1)CCC2	3360 nM (active)

Let us examine a further case.
Briefly, EC50 measured for Cc1oc(-c2ccccc2Cl)nc1CS(=O)(=O)CC(=O)NCCc1ccccc1 : 2900 nM (active)

* * *

# Experimental target: Calpain-2 catalytic subunit (Sus scrofa)
# Sequence (P43367 whole entry): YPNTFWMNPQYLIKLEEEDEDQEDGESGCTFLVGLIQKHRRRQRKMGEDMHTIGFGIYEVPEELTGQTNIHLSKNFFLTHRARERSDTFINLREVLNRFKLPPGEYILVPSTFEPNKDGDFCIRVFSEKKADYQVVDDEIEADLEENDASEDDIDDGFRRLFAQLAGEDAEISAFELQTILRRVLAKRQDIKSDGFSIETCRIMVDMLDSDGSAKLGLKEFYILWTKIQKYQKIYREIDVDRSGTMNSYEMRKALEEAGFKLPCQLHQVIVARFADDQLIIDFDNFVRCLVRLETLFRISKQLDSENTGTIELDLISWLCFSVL
# Assay name: pig calpain II inhibitor potency, dose response, biochemical, fluorogenic peptide substrate (AID 1420)
# Type: functional
Calls of active or inactive are those of the source.
Endpoint label: IC50

// known answers, use as guide
Molecule	Experimental target	IC50
CCOC(=O)C(/C=N/c1cccc(C)c1C)=C(/O)OCC	Calpain-2 catalytic subunit (Sus scrofa)	14 µM (not active)
CCOc1ccc(NC(=NCc2ccc3c(c2)OCO3)SC2CC(=O)N(c3ccc(OCC)cc3)C2=O)cc1 (configuration not stated)	Calpain-2 catalytic subunit (Sus scrofa)	> 50 µM (not active)
Cc1nc2ccccc2[nH]c(=O)c1=NNc1ccc([N+](=O)[O-])cc1	Calpain-2 catalytic subunit (Sus scrofa)	12.3 µM (not active)
CC(C)Cn1c(-c2ccc(Br)cc2)cnc1S	Calpain-2 catalytic subunit (Sus scrofa)	12.1 µM (active)
COc1ccccc1-c1nnc(SCC(=O)NCc2c(C)c(Cl)cc(C(C)C)c2O)o1	Calpain-2 catalytic subunit (Sus scrofa)	15.8 µM (not active)
Oc1ccc(Br)cc1/C=N/c1ccc(Cl)cc1	Calpain-2 catalytic subunit (Sus scrofa)	43.8 µM (not active)

Let us examine a further case.
Briefly, IC50 measured for O=C(COC(=O)c1cc(Cl)ccc1[N+](=O)[O-])NCc1ccc(Cl)cc1Cl : 6.14 µM (not active)

* * *

# Experimental target: UniProt P29990
# Sequence (P29990 2492-3391 limits assumed): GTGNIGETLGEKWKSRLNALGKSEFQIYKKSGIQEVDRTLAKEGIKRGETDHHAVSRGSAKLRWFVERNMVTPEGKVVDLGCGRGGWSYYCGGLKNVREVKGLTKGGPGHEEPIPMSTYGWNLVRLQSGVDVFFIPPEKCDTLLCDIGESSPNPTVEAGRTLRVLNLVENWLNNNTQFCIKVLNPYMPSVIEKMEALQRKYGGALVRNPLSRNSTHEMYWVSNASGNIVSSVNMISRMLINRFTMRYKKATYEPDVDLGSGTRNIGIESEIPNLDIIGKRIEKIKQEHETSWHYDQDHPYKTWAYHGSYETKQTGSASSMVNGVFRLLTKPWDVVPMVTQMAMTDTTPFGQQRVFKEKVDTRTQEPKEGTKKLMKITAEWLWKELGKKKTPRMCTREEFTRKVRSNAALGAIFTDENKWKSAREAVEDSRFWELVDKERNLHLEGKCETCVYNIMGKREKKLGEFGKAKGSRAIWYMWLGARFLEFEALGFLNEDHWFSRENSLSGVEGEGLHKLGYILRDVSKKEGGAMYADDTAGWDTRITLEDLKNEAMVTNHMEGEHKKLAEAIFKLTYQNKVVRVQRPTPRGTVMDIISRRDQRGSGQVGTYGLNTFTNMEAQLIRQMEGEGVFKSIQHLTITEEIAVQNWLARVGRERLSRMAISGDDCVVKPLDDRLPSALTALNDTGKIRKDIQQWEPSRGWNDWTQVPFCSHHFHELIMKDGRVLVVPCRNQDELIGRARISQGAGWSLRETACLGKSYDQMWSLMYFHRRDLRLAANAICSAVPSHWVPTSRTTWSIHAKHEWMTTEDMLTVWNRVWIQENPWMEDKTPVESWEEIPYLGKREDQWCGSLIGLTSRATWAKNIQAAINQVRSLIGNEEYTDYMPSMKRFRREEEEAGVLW
# Assay name: Dengue-2 NS5 methyltransferase inhibitors, primary screen, biochemical, confirmation dose response (AID 588689)
# Format: functional
Active and inactive are the calls of the source.
Endpoint label: IC50

Smiles string	Value observed
CC1=NOC(=O)/C1=C\c1ccc2c(c1)OCO2	7.17 µM (active)
CCCc1nnc(NC(=O)c2nc(S(=O)(=O)Cc3cccc(C)c3)ncc2Cl)s1	> 100 µM (active)
O=C1NN(c2ccccc2)C(=O)/C1=C/c1ccc(-c2ccc(C(=O)O)cc2)o1	> 100 µM (active)
CN1CCN(C2=C(Cl)C(=O)N(c3ccc(Cl)c(Cl)c3)C2=O)CC1	16.9 µM (active)

Let us examine a further case.
Briefly, IC50 measured for O=[N+]([O-])c1ccc(S(=O)(=O)Nc2nc(-c3ccccc3)cs2)cc1 : 59.6 µM (active)

* * *

Active and inactive are the calls of the source.
Estrogen receptor (Homo sapiens, UniProt P03372) IC50 data;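 note: potency for inhibiting coactivator peptide recruitment to the receptor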
Sequence (P03372 whole entry): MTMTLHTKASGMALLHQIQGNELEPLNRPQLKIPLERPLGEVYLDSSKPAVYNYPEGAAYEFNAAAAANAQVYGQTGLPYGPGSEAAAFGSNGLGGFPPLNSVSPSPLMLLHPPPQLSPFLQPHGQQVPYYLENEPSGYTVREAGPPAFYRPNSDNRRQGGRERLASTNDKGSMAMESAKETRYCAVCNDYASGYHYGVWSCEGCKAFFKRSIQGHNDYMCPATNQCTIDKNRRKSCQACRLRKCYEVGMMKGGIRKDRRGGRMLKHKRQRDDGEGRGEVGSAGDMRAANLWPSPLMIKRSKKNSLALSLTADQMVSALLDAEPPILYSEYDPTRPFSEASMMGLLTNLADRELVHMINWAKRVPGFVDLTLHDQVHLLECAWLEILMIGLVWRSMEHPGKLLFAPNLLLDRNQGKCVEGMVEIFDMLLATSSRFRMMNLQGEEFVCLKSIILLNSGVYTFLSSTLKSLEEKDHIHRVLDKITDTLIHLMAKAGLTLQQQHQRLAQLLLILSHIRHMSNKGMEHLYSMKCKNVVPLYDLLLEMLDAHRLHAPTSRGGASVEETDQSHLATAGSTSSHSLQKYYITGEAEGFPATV

// known answers, use as guide
Compound	IC50
Oc1ccc(C2c3sc(O)nc3SC3C4CCC(C4)C23)cc1 (stereo unspecified)	> 50 µM (not active)
CC1(C)Cc2c(sc3c4nnnn4c4nnnn4c23)CO1	4.11 µM (active)
Cc1nnc(SCC(=O)NC(=O)NCc2ccco2)n1Cc1ccccc1	< 1.56 µM (active)
O=C(Cc1cccs1)Nc1ccccn1	13.4 µM (active)
COC(=O)c1cc(NC(=O)Cn2c(=O)cnc3ccccc32)cc(C(=O)OC)c1	> 50 µM (not active)

Let us examine a further case.
Briefly, IC50 measured for NC(=S)n1[nH]c(-c2ccc([N+](=O)[O-])cc2)c(/N=N/c2ccc(O)cc2)c1=O : 11 µM (active)

* * *

# Experimental target: Nonstructural protein 1 (Influenza A virus)
# Sequence (Q194T2 whole entry): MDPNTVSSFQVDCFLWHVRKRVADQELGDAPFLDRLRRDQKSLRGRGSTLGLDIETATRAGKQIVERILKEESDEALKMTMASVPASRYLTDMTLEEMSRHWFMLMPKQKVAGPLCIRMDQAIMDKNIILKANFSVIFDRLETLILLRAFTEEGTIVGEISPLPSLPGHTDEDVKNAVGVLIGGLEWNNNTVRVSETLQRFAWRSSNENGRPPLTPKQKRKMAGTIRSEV
# Type: functional, Influenza A virus (A/California/07/2009(H1N1))
Active and inactive are the calls of the source.
# maps each entry to its IC50

Molecule	IC50
Cc1ccc2c(c1)C1CN(C)CCC1N2S(=O)(=O)c1ccc(Oc2ccc([N+](=O)[O-])cc2)cc1 (centres undefined)	> 100 µM (active)
O=C(CSc1n[nH]c(-c2ccccn2)n1)Nc1ccc(Cl)cc1	8.79 µM (active)
O=C(NC(=S)NNC(=O)c1cnccn1)c1ccc(F)cc1	2.95 µM (active)

Let us examine a further case.
Briefly, IC50 measured for Nc1ccc(Nc2ccccc2N)cc1 : 8.33 µM (active)

* * *

# Experimental target: Short transient receptor potential channel 4 (Mus musculus)
# Sequence (Q9QUQ5 whole entry): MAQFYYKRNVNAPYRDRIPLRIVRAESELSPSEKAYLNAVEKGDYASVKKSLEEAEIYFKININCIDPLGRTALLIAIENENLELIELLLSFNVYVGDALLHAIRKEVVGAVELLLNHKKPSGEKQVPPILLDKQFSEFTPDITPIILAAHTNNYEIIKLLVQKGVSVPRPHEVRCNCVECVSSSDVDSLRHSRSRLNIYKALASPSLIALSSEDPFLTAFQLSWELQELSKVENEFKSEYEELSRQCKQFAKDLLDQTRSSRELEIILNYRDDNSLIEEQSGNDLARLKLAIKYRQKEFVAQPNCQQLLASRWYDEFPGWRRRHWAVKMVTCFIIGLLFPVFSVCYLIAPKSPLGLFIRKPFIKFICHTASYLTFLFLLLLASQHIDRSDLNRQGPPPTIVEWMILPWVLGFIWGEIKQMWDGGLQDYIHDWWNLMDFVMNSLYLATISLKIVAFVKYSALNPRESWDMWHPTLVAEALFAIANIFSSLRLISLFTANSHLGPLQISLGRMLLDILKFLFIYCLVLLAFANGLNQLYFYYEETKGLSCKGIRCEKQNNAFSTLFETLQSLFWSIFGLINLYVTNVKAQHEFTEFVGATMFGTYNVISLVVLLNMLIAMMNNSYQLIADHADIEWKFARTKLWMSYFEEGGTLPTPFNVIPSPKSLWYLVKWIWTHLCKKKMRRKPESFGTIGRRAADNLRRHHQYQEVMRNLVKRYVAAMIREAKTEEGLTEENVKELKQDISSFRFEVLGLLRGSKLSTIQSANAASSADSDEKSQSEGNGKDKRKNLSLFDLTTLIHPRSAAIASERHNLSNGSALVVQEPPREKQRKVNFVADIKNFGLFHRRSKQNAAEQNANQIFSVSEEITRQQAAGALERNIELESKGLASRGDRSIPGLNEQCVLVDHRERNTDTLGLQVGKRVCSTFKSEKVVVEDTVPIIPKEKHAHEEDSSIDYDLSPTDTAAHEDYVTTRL
# Assay name: mouse TRPC4 channel activators, dose response, cell-based, HEK293 TRPC4/mu-opioid, Fluo-4 calcium (AID 434937)
# Assay type: functional
Calls of active or inactive are those of the source.
Endpoint label: EC50

// known answers, use as guide
Compound	Value observed
CCCN(CCC)CCCNC(=O)C1CCC(CNS(=O)(=O)c2cccc3nsnc23)CC1 (stereo unspecified)	531 nM (active)
Cc1ccc(C)c(NC(S)=NCC(c2ccccc2)N(C)C)c1 (stereo unspecified)	188 nM (active)
CN1CCN(c2ccc(NC(=O)COc3cccc4ccccc34)cc2)CC1	2990 nM (active)
Cc1ccccc1NC(S)=NCC(c1cccnc1)N(C)C (stereo unspecified)	42.7 nM (active)
CC1(C)CC(CCNCc2ccc3c(c2)OCO3)(Cc2ccccc2)CCO1 (stereo unspecified)	6680 nM (active)

Briefly, EC50 measured for NCCNC(=O)c1c(NC(=O)c2ccccc2)sc2c1CCCC2 : 6680 nM (active)

* * *

# Experimental target: Corticotropin-releasing factor receptor 2/Corticotropin-releasing factor-binding protein (Homo sapiens, UniProt P24387+Q13324)
# Sequence (Q13324 whole entry): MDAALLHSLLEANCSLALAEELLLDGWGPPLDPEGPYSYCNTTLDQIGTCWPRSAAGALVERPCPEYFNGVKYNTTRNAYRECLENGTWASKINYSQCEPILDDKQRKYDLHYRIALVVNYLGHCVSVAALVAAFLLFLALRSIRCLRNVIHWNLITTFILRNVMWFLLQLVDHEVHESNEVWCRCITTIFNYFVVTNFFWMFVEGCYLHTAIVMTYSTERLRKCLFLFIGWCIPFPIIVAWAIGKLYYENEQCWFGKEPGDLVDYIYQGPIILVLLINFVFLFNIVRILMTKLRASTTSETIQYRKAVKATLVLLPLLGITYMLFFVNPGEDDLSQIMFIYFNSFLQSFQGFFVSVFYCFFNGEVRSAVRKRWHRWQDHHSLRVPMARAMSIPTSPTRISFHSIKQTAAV
# Sequence (P24387 whole entry): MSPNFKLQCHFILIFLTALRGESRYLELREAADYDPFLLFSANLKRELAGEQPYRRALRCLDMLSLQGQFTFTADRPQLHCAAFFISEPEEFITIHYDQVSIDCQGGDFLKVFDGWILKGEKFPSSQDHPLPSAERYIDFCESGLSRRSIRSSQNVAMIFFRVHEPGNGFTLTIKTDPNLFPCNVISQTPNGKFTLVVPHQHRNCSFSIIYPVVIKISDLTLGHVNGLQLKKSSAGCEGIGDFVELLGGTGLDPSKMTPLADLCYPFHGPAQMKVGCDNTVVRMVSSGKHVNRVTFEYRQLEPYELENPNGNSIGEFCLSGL
# Assay name: activators of CRF receptor 2 with binding protein – uHTS hits, confirmation (AID 602473)
# Format: functional
# Settings: read-out: EC50_Mean
Activity calls are given as the source filed them.
# maps each entry to its EC50

Smiles string	Endpoint label	Value observed
O=S(=O)(c1cccc2nsnc12)N1CCc2ccccc2C1	EC50	> 53 µM (inactive)
CN(C)C(=O)COC(=O)[C@H](Cc1ccccc1)NC(=O)c1ccco1	EC50	19.4 µM (active)
N#Cc1c(-c2ccc(F)cc2)cc(-c2ccccc2)nc1SCC(=O)NCC(=O)O	EC50	5.47 µM (active)

Briefly, EC50 measured for O=[N+]([O-])c1cccnc1Sc1ccc(Cl)cc1 : > 53 µM (inactive)

* * *

# Experimental target: Rac GTPase-activating protein 1 (Homo sapiens, UniProt Q9H0H5)
# Sequence (Q9H0H5 whole entry): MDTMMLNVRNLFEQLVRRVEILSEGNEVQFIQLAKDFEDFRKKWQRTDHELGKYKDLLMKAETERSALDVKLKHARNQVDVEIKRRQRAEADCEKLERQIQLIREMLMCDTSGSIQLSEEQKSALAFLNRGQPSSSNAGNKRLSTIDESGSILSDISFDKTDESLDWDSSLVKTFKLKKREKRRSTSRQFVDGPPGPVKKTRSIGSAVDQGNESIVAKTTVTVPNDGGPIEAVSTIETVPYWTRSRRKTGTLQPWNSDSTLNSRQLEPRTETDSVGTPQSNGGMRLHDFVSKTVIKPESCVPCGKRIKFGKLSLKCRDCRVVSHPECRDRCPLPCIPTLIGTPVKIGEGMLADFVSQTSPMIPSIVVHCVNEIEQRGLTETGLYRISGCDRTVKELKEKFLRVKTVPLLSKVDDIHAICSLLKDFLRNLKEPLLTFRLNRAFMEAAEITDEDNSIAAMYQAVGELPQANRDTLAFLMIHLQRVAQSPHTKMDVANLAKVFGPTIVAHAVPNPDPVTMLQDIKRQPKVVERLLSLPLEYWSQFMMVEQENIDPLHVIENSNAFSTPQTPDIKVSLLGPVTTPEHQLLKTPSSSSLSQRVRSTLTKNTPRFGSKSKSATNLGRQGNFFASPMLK
# Assay name: MgcRacGAP GTPase-activating activity inhibitors, confirmation, biochemical, ADP Hunter fluorescence, primary and confirmatory (AID 624330)
# Assay type: functional
Active and inactive are the calls of the source.
# maps each entry to its IC50

// known answers, use as guide
Compound	Endpoint label	Value observed
COc1cc(/C=N/NC(=S)Nc2cccc(C(=O)O)c2)ccc1O	IC50	44.9 µM (active)
COc1cc(/C=N/Nc2nn3cnnc3c3ccccc23)ccc1O	IC50	64.2 µM (active)
C#CCOCCOCCOCCNc1nc(N2CCN(C(=O)[C@H](CCCCN)n3cc(CN)nn3)CC2)nc(N2CCN(C(=O)[C@H](CCCCN)n3cc(CN)nn3)CC2)n1	IC50	203 µM (active)
Cc1ccc(CN2CCN(CC3CC4C=CC3C4)CC2)cc1 (stereo unspecified)	IC50	113 µM (active)
Oc1ccc(/C=N\Nc2cc(N3CCOCC3)nc(N3CCOCC3)n2)c(O)c1	IC50	57.1 µM (active)

Let us examine a further case.
Briefly, IC50 measured for O=C1C=C(Nc2ccc(O)cc2)CC(c2ccco2)C1 (stereo unspecified) : 19.6 µM (active)
